# Target Or System: IRAK4 (Homo sapiens, UniProt Q9NWZ3)
# Sequence (Q9NWZ3 whole entry): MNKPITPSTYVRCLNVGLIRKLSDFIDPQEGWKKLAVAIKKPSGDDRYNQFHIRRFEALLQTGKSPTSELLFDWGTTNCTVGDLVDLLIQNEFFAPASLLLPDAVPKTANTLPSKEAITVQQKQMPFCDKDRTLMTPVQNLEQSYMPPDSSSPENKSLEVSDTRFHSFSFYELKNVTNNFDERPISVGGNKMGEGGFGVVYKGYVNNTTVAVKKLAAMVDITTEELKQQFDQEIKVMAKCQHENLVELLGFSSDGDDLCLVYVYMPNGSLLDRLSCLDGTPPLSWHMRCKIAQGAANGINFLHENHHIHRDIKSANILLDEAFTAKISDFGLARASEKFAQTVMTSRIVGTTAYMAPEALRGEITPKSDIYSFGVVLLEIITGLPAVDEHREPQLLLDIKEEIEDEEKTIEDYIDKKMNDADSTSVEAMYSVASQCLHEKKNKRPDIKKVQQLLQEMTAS
# Procedure Details: IRAK4 PhosphoSens Biochemical Assay (BIOCHEM)
# Study Conditions: 200 μM ATP, 10 μM peptide substrate AQT0326, 1 nM IRAK4, room temperature, 240 minutes
Measurement Label: pIC50
Expect pIC50 as a plain number equal to -log10 of the molar concentration.

CN(CC1CCC(n2cc(NC(=O)c3cnn4ccc(N5Cc6cnn(C)c6C5)nc34)c(C(F)F)n2)CC1)C1CCN(c2ccc3c(C4CCC(=O)NC4=O)nn(C)c3c2)CC1 (centres unmarked) [P-49] : 9.10

Now look at this entry.
# pIC50 lookup, item CN(CC1CCC(n2cc(NC(=O)c3cnn4ccc(N5CC[C@H](C#N)C5)nc34)c(C(F)F)n2)CC1)C1CCN(c2ccc3c(C4CCC(=O)NC4=O)nn(C)c3c2)CC1 (some centres unmarked) [P-50] 9.10
